# experimental_system: T1, rat PTH-1R (rat PTHR endogenously expressed on UMR-106 rat osteosarcoma cells) (rat, UniProt P25961 27-591)
# T1 sequence (looked up): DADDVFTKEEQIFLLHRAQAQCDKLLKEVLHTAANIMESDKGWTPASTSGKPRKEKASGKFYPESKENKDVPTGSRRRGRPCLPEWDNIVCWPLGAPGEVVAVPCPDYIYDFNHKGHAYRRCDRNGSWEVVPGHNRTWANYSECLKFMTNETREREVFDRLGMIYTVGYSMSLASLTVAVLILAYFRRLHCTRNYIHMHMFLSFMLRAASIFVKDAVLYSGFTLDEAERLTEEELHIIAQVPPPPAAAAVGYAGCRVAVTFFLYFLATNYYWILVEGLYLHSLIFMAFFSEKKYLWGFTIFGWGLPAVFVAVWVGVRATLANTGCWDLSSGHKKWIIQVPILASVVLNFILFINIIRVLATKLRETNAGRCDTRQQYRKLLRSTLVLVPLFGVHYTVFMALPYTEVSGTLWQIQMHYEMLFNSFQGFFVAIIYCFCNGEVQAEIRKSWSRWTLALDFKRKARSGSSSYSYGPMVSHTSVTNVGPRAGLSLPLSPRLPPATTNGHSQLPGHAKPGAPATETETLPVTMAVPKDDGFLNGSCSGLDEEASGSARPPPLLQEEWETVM
# assay_info: cell-based or functional assay
Where no end group is shown, it is not given here. [ ]: non-standard residue; d: D form. Bip(2'-Et-4'-OMe) = CCc1cc(OC)ccc1-c1ccc(C[C@H](N)C(=O)O)cc1; αMePhe(2,6-F2) = C[C@](N)(Cc1c(F)cccc1F)C(=O)O; αMePhe(2-F) = C[C@](N)(Cc1ccccc1F)C(=O)O; αMeW = C[C@](N)(Cc1c[nH]c2ccccc12)C(=O)O; hhPhe = N[C@@H](CCCc1ccccc1)C(=O)O; hArg = N=C(N)NCCCC[C@H](N)C(=O)O; hCit = NC(=O)NCCCC[C@H](N)C(=O)O; Cit = NC(=O)NCCC[C@H](N)C(=O)O; αMeM = CSCC[C@](C)(N)C(=O)O; Nle = CCCC[C@H](N)C(=O)O; Orn = NCCC[C@H](N)C(=O)O; Ac5c = NC1(C(=O)O)CCCC1; Aib = CC(C)(N)C(=O)O
result_type: cAMP released with respect to control, 10 nM peptide, UMR-106 cells

Find the measured cAMP released with respect to control, 10 nM peptide, UMR-106 cells of [Aib]V[Aib]EIQ[αMePhe(2-F)][Nle]HQ[αMePhe(2,6-F2)][Aib][αMePhe(2,6-F2)][αMePhe(2,6-F2)] [Seq. ID. 514] and report it.
64 percent of control

Find the measured cAMP released with respect to control, 10 nM peptide, UMR-106 cells of [Aib]V[Aib]EIQ[αMePhe(2,6-F2)][Nle]HQ[hCit]A[Cit][Bip(2'-Et-4'-OMe)][hhPhe] [Seq. ID. 860] and report it.
50 percent of control

Find the measured cAMP released with respect to control, 10 nM peptide, UMR-106 cells of [Aib]V[Aib]EIQ[αMePhe(2,6-F2)][Nle]HQ[hArg][Aib][Cit][Bip(2'-Et-4'-OMe)][hhPhe] [Seq. ID. 820] and report it.
48 percent of control

Find the measured cAMP released with respect to control, 10 nM peptide, UMR-106 cells of [Aib]V[Aib]EIQ[αMePhe(2,6-F2)][Nle]HQ[αMePhe(2,6-F2)][Aib][Aib][Bip(2'-Et-4'-OMe)][hhPhe] [Seq. ID. 886] and report it.
72 percent of control

***
Find the measured cAMP released with respect to control, 10 nM peptide, UMR-106 cells of [Aib]V[Aib]EIQL[αMeM]HQ[hArg]A[hArg][αMeW][hhPhe] [Seq. ID. 942] and report it.
52 percent of control

Find the measured cAMP released with respect to control, 10 nM peptide, UMR-106 cells of [Aib]V[Aib]EIQ[αMePhe(2,6-F2)][Nle]HQ[hCit]A[Aib][αMePhe(2-F)] [Seq. ID. 429] and report it.
101 percent of control

Find the measured cAMP released with respect to control, 10 nM peptide, UMR-106 cells of [Ac5c]V[Aib]EIQ[αMePhe(2,6-F2)][Nle]HQ[Orn]A[Aib][αMePhe(2,6-F2)] [Seq. ID. 311] and report it.
68 percent of control
